Just for reference, patent US20060025566A1 is where these values come from.

# TGT: human growth hormone secretagogue receptor (hGHS-R1a) (Homo sapiens, UniProt Q92847)
# Construct: purchased PerkinElmer BioSignal #RBHGHSM, lot#1887; host or cells: HEK-293, stably transfected (membranes)
# Sequence (Q92847 whole entry): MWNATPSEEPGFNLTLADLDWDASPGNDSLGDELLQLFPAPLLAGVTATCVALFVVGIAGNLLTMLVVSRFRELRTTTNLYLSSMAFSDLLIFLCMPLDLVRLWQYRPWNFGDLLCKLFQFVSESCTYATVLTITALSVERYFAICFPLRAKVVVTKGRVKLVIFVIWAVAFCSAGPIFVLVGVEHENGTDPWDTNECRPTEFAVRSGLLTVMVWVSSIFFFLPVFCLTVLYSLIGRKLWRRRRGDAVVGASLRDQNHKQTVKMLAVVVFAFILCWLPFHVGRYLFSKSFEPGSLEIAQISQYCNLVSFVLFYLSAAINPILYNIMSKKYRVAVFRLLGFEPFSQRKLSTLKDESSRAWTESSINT
# EXPERIMENT DESCRIPTION: Competitive radioligand binding assay (ghrelin receptor), [125I]-ghrelin displacement on GHS-R/HEK 293 membranes
# ASSAY CONTEXT: binding activity at the human ghrelin receptor, [125I]-ghrelin competition, GHS-R/HEK 293 membranes; read-out: Ki
EXPERIMENTAL ENDPOINT: Ki

Illustrative cases are given below, each with its answer.
CC[C@H](C)[C@@H]1NCCOc2ccccc2CCCNC(=O)[C@@H](Cc2ccccc2)NC(=O)[C@H](CC(C)C)N(C)C1=O [compound 148] :: > 1 µM
CCC(C)C1NCCOc2ccccc2CCCNC(=O)C(Cc2ccccc2)NC(=O)C(C(C)C)N(C)C1=O (centres unmarked) [compound 144] :: 0.1 to 1 µM
CCC[C@@H]1NCCOc2ccccc2CCCNC(=O)[C@@H](CCCN)NC(=O)CN(C)C1=O [compound 53] :: > 10 µM
CCC1NCCOc2ccccc2C=CCNC(=O)C(Cc2ccccc2)NC(=O)C2(CCCC2)NC1=O (single isomer, unassigned) [136a] :: 0.01 to 0.1 µM

Problem: GET /values?readout=Ki&system=human growth hormone secretagogue receptor (hGHS-R1a) (Homo sapiens, UniProt Q92847)&item= CCC1NCCOc2ccccc2/C=C/CNC(=O)C(Cc2ccccc2)NC(=O)C2(CCCC2)NC1=O (single isomer, unassigned) [136b]
Result: 0.1 to 1 µM

Problem: GET /values?readout=Ki&system=human growth hormone secretagogue receptor (hGHS-R1a) (Homo sapiens, UniProt Q92847)&item= CCC(C)C1NCCOc2ccccc2CCCNC(=O)C(Cc2ccccc2)NC(=O)C(C(C)C)N(C)C1=O (single isomer, unassigned) [145b]
Result: > 1 µM

Problem: GET /values?readout=Ki&system=human growth hormone secretagogue receptor (hGHS-R1a) (Homo sapiens, UniProt Q92847)&item= CC(C)C[C@@H]1NCCOc2ccccc2C=CCNC(=O)[C@H](Cc2ccc(Cl)cc2)NC(=O)C2(CCCC2)NC1=O (stereo in doubt) [compound 153]
Result: 0.01 to 0.1 µM

* * *

# TGT: UniProt O43193
# Sequence (O43193 whole entry): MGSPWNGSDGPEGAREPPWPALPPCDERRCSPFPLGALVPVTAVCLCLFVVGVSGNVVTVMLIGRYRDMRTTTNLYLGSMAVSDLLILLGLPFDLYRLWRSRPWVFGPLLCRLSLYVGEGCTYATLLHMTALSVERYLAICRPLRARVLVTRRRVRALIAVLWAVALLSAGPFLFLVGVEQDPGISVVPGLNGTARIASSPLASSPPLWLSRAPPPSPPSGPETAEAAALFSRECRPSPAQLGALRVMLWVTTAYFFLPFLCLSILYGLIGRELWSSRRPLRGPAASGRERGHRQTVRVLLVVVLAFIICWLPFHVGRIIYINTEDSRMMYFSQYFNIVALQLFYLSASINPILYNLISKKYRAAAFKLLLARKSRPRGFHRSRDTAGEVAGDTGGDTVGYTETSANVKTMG
# EXPERIMENT DESCRIPTION: Selectivity for the ghrelin receptor versus the motilin receptor
# Assay type: binding
Reported Selectivity values follow for various molecules

CCC(C)C1NCCCCCCCCNC(=O)C(Cc2cccc(Cl)c2)NC(=O)C2(CCCC2)NC1=O (stereo not shown) :: 35/1

Problem: GET /values?readout=Selectivity&system=UniProt O43193&item= CC1C(=O)NC(Cc2ccc(Cl)cc2Cl)C(=O)NCCCc2ccccc2OCCNC(C2CC2)C(=O)N1C (stereo not shown)
Result: >5500/1

Problem: GET /values?readout=Selectivity&system=UniProt O43193&item= CCC(C)C1NCCOc2ccccc2CCCNC(=O)C(Cc2ccccc2)NC(=O)C(C)N(CC)C1=O (stereo not shown)
Result: 3700/1

Problem: GET /values?readout=Selectivity&system=UniProt O43193&item= CCC(C)C1NCCOc2ccccc2C=CCNC(=O)C(Cc2ccccc2)NC(=O)C(C)N(C)C1=O (stereo not shown)
Result: >3300/1

Problem: GET /values?readout=Selectivity&system=UniProt O43193&item= CCC(C)C1NCCOc2ccc(C(=O)O)cc2CCCNC(=O)C(Cc2ccccc2)NC(=O)C(C)N(C)C1=O (stereo not shown)
Result: 100/1

Problem: GET /values?readout=Selectivity&system=UniProt O43193&item= CCC(C)C1NCCOc2ccccc2C2CC2CNC(=O)C(Cc2cccc(Cl)c2)NC(=O)C2(CCCC2)NC1=O (stereo not shown)
Result: 400/1

Problem: GET /values?readout=Selectivity&system=UniProt O43193&item= C[C@@H]1C(=O)N[C@H](Cc2ccccc2)C(=O)NCCCc2ccccc2OCCN[C@@H](C2CC2)C(=O)N1C
Result: 2500/1
